# target.under.test: full-length beta-Catenin (Uniprot ID P35222) (Homo sapiens, UniProt P35222)
# Construct: 10 nM full-length beta-Catenin (Uniprot ID P35222)
# Sequence (P35222 whole entry): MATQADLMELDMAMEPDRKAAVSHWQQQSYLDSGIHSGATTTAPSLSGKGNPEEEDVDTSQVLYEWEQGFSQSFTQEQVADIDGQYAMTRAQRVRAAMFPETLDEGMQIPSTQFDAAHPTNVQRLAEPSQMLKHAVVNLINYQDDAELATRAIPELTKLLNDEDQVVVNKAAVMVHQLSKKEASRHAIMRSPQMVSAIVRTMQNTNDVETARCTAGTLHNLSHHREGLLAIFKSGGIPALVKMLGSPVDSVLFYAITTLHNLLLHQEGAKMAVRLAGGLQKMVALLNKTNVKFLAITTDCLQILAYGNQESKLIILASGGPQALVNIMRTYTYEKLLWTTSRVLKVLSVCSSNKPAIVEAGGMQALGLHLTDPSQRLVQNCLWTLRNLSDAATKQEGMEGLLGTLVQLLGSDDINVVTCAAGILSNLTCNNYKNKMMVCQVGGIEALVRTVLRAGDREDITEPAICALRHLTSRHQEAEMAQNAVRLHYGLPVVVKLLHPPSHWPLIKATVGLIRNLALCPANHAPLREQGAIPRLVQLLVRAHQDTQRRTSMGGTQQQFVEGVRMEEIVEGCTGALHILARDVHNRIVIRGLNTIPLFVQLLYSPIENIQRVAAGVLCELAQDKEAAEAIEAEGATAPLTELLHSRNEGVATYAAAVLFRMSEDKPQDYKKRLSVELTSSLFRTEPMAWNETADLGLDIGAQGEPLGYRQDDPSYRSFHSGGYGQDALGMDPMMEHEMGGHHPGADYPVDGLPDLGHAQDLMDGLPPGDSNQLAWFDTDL
# measurement.protocol: Fluorescence polarization IC50 (beta-catenin / 5FAM-TCF4 10-53 competition)
# Format: binding
# stated.conditions: read-out: beta-Catenin FP IC50
pIC50: −log10 of the molar value.

# molecule, target.under.test, pIC50
records = [
    ("COc1ccccc1C[C@H](NC(=O)[C@]12CCN(C1)C(=O)OCCCC=CCCCC1(CCCC=CC[C@]3(CCCN3C(C)=O)C(=O)N[C@@H](CC(=O)O)C(=O)N[C@@H](CC(C)(C)C)C(=O)N1)C(=O)N[C@@H](CC(=O)O)C(=O)N[C@@H](CC(=O)O)C(=O)N[C@@H](C)C(=O)N[C@@H](C)C(=O)N[C@@H](Cc1ccccc1)C(=O)N[C@@H](CO)C(=O)N2)C(=O)N[C@@H](Cc1csc2ccccc12)C(=O)N[C@@H](CO)C(N)=O (some centres unmarked)", "full-length beta-Catenin (Uniprot ID P35222) (Homo sapiens, UniProt P35222)", 7.82),
    ("CC(=O)N1CCC[C@]12CC=CCCCC1(CCCC=CCCCOC(=O)N3CC[C@@](C(=O)N[C@@H](Cc4ccsc4)C(=O)N[C@@H](Cc4csc5ccccc45)C(=O)N[C@@H](CCC(N)=O)C(N)=O)(C3)NC(=O)[C@H](CC(N)=O)NC(=O)[C@H](Cc3cscn3)NC(=O)[C@H](C)NC(=O)[C@H](C)NC(=O)[C@H](CC(=O)O)NC(=O)[C@H](CC(=O)O)NC1=O)NC(=O)[C@H](CC(C)(C)C)NC(=O)[C@H](CC(=O)O)NC2=O (some centres unmarked)", "full-length beta-Catenin (Uniprot ID P35222) (Homo sapiens, UniProt P35222)", 7.48),
    ("CC(=O)N1CCC[C@]12CC=CCCCC1(CCCC=CCCCOC(=O)N3CC[C@@](C(=O)N[C@@H](Cc4ccccc4Cl)C(=O)N[C@@H](Cc4csc5ccccc45)C(=O)N[C@@H](CCO)C(N)=O)(C3)NC(=O)[C@H](Cc3ccccc3)NC(=O)[C@H](Cc3ccccc3)NC(=O)[C@H](C)NC(=O)[C@H](C)NC(=O)[C@H](CN(CC(=O)O)CC(F)(F)F)NC(=O)[C@H](CC(=O)O)NC1=O)NC(=O)[C@H](CC(C)(C)C)NC(=O)[C@H](CC(=O)O)NC2=O (some centres unmarked)", "full-length beta-Catenin (Uniprot ID P35222) (Homo sapiens, UniProt P35222)", 7.23),
    ("CC(=O)N1CCC[C@]12CC=CCCCC1(CCCC=CCCCOC(=O)N3CC[C@@](C(=O)N[C@@H](Cc4cccs4)C(=O)N[C@@H](Cc4csc5ccccc45)C(=O)N[C@@H](CCC(N)=O)C(N)=O)(C3)NC(=O)[C@H](CC(N)=O)NC(=O)[C@H](Cc3ccccc3)NC(=O)[C@H](C)NC(=O)[C@H](C)NC(=O)[C@H](CC(=O)O)NC(=O)[C@H](CC(=O)O)NC1=O)NC(=O)[C@H](CC(C)(C)C)NC(=O)[C@H](CC(=O)O)NC2=O (some centres unmarked)", "full-length beta-Catenin (Uniprot ID P35222) (Homo sapiens, UniProt P35222)", 8.10),
    ("CC(=O)N1CCC[C@]12CC=CCCCC1(CCCC=CCCCOC(=O)N3CC[C@@](C(=O)N[C@@H](Cc4ccccc4Cl)C(=O)N[C@@H](Cc4csc5ccccc45)C(=O)N[C@@H](C(N)=O)[C@H](C)O)(C3)NC(=O)[C@H]([C@@H](C)O)NC(=O)[C@H](Cc3ccccc3)NC(=O)[C@H](C)NC(=O)[C@H](C)NC(=O)[C@H](CC(=O)O)NC(=O)[C@H](CC(=O)O)NC1=O)NC(=O)[C@H](CC(C)(C)C)NC(=O)[C@H](CC(=O)O)NC2=O (some centres unmarked)", "full-length beta-Catenin (Uniprot ID P35222) (Homo sapiens, UniProt P35222)", 8.00),
]
